All figures here come from patent US20120264735A1.

Target: c-Met kinase (recombinant c-Met) (Homo sapiens, UniProt P08581)
Construct: 0.27 nM recombinant c-Met
Sequence (P08581 25-1390): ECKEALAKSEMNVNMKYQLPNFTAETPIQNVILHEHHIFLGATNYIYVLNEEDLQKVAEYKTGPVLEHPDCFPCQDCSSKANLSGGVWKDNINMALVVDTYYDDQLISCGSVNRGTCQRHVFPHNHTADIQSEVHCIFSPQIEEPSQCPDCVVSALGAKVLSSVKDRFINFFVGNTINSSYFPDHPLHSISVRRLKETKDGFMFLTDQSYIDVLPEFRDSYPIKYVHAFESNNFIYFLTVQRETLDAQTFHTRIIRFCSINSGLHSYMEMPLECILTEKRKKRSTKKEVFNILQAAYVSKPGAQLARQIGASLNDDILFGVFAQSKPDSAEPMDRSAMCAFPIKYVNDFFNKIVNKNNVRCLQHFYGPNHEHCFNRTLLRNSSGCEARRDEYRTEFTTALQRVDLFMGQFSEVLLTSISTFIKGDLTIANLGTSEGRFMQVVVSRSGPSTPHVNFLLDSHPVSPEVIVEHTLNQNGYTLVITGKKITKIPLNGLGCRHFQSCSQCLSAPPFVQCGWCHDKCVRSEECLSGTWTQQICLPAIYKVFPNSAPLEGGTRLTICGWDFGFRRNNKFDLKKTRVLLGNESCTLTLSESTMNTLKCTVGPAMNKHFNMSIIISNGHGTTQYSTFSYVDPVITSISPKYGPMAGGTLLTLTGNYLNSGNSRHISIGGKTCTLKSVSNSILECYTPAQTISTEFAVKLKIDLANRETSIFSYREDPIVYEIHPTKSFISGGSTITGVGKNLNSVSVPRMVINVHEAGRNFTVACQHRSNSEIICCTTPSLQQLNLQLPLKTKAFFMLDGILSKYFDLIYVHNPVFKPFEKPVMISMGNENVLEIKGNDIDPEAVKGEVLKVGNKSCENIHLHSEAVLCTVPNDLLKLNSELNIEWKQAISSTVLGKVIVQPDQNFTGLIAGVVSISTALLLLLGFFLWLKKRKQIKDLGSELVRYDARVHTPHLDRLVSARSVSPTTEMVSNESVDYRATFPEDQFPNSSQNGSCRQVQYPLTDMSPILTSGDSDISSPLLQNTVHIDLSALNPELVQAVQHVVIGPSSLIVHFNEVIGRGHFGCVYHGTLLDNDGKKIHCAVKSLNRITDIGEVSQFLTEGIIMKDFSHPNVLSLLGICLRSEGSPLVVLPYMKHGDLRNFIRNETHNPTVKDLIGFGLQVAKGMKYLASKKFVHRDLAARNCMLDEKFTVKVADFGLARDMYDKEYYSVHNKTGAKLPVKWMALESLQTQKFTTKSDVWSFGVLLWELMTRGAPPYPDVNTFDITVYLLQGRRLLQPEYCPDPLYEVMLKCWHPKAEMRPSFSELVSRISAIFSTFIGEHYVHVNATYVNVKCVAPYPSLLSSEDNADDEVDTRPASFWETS
Experiment: In vitro kinase assay I (homogeneous time-resolved fluorescence tyrosine kinase assay)
pIC50: −log10 of the molar value.
In this section, each of the compounds is paired with its reported pIC50.

Cn1cc(-n2ccc(=O)c(Cc3cccc(-c4ncc(O[C@H]5CCC[C@@H]5O)cn4)c3)n2)cn1 (single isomer, unassigned)	> 7.00
COCCOc1cnc(-c2cccc(Cc3nn(-c4cnn(C)c4F)cc(F)c3=O)c2)nc1	> 7.00
O=c1ccn(-c2ccc(F)c(F)c2)nc1Cc1cccc(-c2ncc(OC3CCOC3)cn2)c1 (single isomer, unassigned) [Example 350]	> 7.00

Query :: What measured pIC50 is associated with COCCOC(=O)Nc1cccc(C(C)c2nn(-c3cnn(C)c3)ccc2=O)c1 (single isomer, unassigned) [Example 653] on c-Met kinase (recombinant c-Met) (Homo sapiens, UniProt P08581)?
Result :: 6.00 to 7.00

Query :: What measured pIC50 is associated with O=C(Nc1cccc(Cc2nn(-c3cc(F)c(F)c(F)c3)ccc2=O)c1)OCC1CCCC1 on c-Met kinase (recombinant c-Met) (Homo sapiens, UniProt P08581)?
Result :: > 7.00

Query :: What measured pIC50 is associated with COC(C)c1cnc(-c2cccc(Cc3nn(-c4cnn(C)c4)ccc3=O)c2)nc1 (racemic) on c-Met kinase (recombinant c-Met) (Homo sapiens, UniProt P08581)?
Result :: 6.00 to 7.00

Query :: What measured pIC50 is associated with CCOc1cnc(-c2cccc(Cc3nn(-c4cnn(CC)c4)ccc3=O)c2)nc1 on c-Met kinase (recombinant c-Met) (Homo sapiens, UniProt P08581)?
Result :: > 7.00

Query :: What measured pIC50 is associated with Cn1cc(-n2ccc(=O)c(Cc3cccc(-c4ncc(OCC(=O)N5CCOCC5)cn4)c3)n2)cn1 on c-Met kinase (recombinant c-Met) (Homo sapiens, UniProt P08581)?
Result :: > 7.00

Query :: What measured pIC50 is associated with CC(C)COC(=O)Nc1cccc(Cc2nn(-c3ccc(-c4ccncc4)cc3)ccc2=O)c1 on c-Met kinase (recombinant c-Met) (Homo sapiens, UniProt P08581)?
Result :: > 7.00

Query :: What measured pIC50 is associated with COCCCOc1cnc(-c2cccc(Cc3nn(-c4cccc(C#N)c4)ccc3=O)c2)nc1 on c-Met kinase (recombinant c-Met) (Homo sapiens, UniProt P08581)?
Result :: > 7.00

Query :: What measured pIC50 is associated with CCn1cc(-n2ccc(=O)c(C(C)c3cccc(-c4ncn(CC)n4)c3)n2)cn1 (single isomer, unassigned) [Example 687] on c-Met kinase (recombinant c-Met) (Homo sapiens, UniProt P08581)?
Result :: > 7.00

Query :: What measured pIC50 is associated with CCCCc1cnc(-c2cccc(Cc3nn(-c4cnn(C)c4)ccc3=O)c2)nc1 on c-Met kinase (recombinant c-Met) (Homo sapiens, UniProt P08581)?
Result :: > 7.00

Query :: What measured pIC50 is associated with Cn1cc(-n2ccc(=O)c(Cc3cccc(-c4ncc(OCC5CCOCC5)cn4)c3)n2)cn1 on c-Met kinase (recombinant c-Met) (Homo sapiens, UniProt P08581)?
Result :: > 7.00
